- tested.on: Human BCMA (human) (UniProt Q02223)
- assay.notes: SPR, IgG immobilised, huBCMA analyte, 37 C

>  <binder>
L3.PY/L1.FF/H3.TAQ (antibody, V domains shown, IgG) VH: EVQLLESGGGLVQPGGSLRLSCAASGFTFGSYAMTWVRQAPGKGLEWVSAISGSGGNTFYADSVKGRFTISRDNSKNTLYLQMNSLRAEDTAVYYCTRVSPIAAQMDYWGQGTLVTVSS VL: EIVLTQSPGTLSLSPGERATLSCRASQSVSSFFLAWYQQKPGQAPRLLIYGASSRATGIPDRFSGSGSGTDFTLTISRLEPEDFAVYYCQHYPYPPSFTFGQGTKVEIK

>  <T½ (min)>
6.12

$$$$
>  <binder>
L3.PY/L1.FF/H3.AE (antibody, V domains shown, IgG) VH: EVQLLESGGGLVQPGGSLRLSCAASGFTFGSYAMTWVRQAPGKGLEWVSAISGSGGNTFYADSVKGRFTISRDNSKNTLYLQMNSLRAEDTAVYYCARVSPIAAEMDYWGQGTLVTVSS VL: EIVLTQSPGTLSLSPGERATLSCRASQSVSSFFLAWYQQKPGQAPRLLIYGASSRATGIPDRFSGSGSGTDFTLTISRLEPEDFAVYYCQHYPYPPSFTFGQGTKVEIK

>  <T½ (min)>
4.39

$$$$
>  <binder>
L3.PY/L1.FF/H2.QR (antibody, V domains shown, IgG) VH: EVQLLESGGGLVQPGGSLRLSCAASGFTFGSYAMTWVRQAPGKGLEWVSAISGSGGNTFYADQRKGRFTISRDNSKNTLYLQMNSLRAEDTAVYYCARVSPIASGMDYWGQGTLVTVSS VL: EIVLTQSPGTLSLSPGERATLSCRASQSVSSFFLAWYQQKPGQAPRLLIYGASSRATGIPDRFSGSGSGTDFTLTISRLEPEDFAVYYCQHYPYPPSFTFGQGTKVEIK

>  <T½ (min)>
6.54

$$$$
